All figures here come from patent US20240301071A1.

- experimental system: T1, histidine-tagged human SIRPA v1 (Novoprotein) (human, UniProt P78324 31-370, limits assumed)
- T1 construct: bought, soluble; also called huSIRPA; soluble huSIRPA; not shown: histidine tag
- T1 sequence (P78324 31-370 limits assumed): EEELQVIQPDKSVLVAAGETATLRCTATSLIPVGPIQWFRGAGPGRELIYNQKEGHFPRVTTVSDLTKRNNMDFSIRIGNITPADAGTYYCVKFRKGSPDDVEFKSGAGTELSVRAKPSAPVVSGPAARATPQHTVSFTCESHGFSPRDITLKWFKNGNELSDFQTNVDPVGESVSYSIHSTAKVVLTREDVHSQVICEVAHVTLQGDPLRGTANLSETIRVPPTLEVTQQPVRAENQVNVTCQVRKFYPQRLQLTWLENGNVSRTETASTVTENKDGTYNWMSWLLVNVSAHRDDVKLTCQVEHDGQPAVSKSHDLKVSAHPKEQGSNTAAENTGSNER
- assay protocol: BLI (Octet), antibody on anti-human IgG Fc sensor, His-huSIRPA in solution, single-curve 1:1 fit
We label by threshold. Values of Kd strictly beneath 2 nM are true (1). Values of 2 nM and up are false (0).

Is the reported Kd for 3F9-1 (antibody, human IgG1, V domains shown, also called mAb 3F9-1) VH: EVQLLESGGGLVQPGGSLRLSCAASGFTFSSYAMSWVRQAPGKGLEWVATISEYGGSYTYYAESVKGRFTISRDNSKNTLYLQMNSLRAEDTAVYYCARPPYDDYYGGFAYWGQGTLVTVSS VL: DIQLTQSPSSLSASVGDRVTITCRASKSVSSGGYSYMHWYQQKPGKAPKLLIYLASNLESGVPSRFSGSGSGTDFTLTISSVQPEDFATYYCQHNRELPSTFGQGTKLEIK strictly below 2 nM? false (0)

Strictly below 2 nM in Kd? 3F9-8 (antibody, human IgG1, V domains shown, also called mAb 3F9-8) VH: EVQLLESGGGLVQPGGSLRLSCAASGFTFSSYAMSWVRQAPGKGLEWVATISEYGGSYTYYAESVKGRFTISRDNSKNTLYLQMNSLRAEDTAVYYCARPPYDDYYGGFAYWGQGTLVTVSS VL: DIQLTQSPSSLSASVGDRVTITCRASKSVSSGGYSYMHWYQQKPGKAPKLLIYLASNLESGVPSRFSGSGSGTDFTLTISSVQPEDFATYYCQHNRELPGTFGQGTKLEIK false (0)

Quick check: does 3F9-7 (antibody, human IgG1, V domains shown, also called mAb 3F9-7) VH: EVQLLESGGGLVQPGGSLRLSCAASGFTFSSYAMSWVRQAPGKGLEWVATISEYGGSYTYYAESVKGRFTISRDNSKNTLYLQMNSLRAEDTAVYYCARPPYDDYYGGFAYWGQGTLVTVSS VL: DIQLTQSPSSLSASVGDRVTITCRASKSVSSGGYSYMHWYQQKPGKAPKLLIYLASNLESGVPSRFSGSGSGTDFTLTISSVQPEDFATYYCQHNRELPATFGQGTKLEIK have Kd under 2 nM? true (1)

Take the binder 3F9-18 (antibody, human IgG1, V domains shown, also called mAb 3F9-18) VH: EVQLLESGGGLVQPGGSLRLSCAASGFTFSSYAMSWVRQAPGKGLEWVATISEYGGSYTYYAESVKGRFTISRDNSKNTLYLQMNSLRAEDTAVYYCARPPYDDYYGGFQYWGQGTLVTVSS VL: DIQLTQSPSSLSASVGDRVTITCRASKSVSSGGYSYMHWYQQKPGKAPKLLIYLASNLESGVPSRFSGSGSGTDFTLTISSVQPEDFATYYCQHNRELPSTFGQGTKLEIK and say whether its Kd is less than 2 nM. true (1)

Strictly below 2 nM in Kd? 3F9-4 (antibody, human IgG1, V domains shown, also called mAb 3F9-4) VH: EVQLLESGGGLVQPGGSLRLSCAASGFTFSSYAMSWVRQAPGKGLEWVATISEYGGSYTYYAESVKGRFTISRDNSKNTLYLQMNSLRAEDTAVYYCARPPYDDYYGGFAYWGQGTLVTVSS VL: DIQLTQSPSSLSASVGDRVTITCRASKSVSSGGYSYMHWYQQKPGKAPKLLIYLASNLESGVPSRFSGSGSGTDFTLTISSVQPEDFATYYCQHNRELPPTFGQGTKLEIK true (1)
